Each entry below lists one item and its recorded abundance fitness value.
B1: Proto-oncogene vav, residues 782 to 842; numbered along this chain, P15498 (parent)
chain: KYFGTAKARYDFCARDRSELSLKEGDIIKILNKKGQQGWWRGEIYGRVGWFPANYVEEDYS

Variants of: B1
EXPERIMENT: abundance fitness (aPCA) (normalised: wild type 0, dead -1); higher = more abundant; growth selection in yeast, the domain comes from the species named
CONDITIONS USED: Homo sapiens
Lab note: jot the number down without any unit.

Below are worked cases with known answers.
1. P52F
-0.957
2. L20F
-0.937
3. D16R
-0.112
4. I28F
-0.816
5. F3W
-0.166
6. I44L
0.089
7. R41S
-0.359
8. L31N
-0.649
9. A8D
-0.864
10. R17D
-0.046

Task: # return recorded abundance fitness for input `E43N`
Result: -0.36

Task: Determine its reported abundance fitness: `W50A`
Result: -0.649

Task: Specify measured abundance fitness for `Y2M` .
Result: -0.082

Task: Assign abundance fitness to the following record: `N32D`
Result: 0.162

Task: Quick one: give measured abundance fitness for `G25Q`
Result: -0.957

Task: Could you please provide reported abundance fitness for `W50Y` ? Thanks!
Result: -0.17

From: the Human Domainome abundance scans (Beltran et al. 2025)
